experimental_target: 293T-Dual hSTING-R232 cells (Homo sapiens, UniProt Q86WV6, H232R)
Construct: host or cells: 293T-Dual hSTING-R232 cells (HEK 293T)
Sequence (Q86WV6 whole entry H232R): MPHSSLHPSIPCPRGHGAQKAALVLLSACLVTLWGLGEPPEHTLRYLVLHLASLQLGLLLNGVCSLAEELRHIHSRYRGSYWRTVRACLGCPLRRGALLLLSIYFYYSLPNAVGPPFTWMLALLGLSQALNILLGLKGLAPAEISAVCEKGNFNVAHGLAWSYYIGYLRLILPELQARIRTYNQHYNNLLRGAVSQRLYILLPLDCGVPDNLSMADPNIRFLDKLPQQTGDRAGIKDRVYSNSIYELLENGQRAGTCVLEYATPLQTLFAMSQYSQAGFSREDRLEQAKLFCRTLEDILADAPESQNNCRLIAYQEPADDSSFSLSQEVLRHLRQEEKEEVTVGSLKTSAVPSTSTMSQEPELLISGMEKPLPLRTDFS
assay_procedure: 293T R232 cell reporter assay (HEK 293T reporter assay)
Format: cell-based
experimental_context: EC50 [μM] IRN-β reporter, digitonin 10 μg/mL, 30 min exposure, 20 h incubation, luciferase reporter
Catalogue of molecules with associated EC50

Nc1nc2c(nnn2[C@@H]2O[C@@H]3CO[P@@](=O)([S][Na])O[C@H]4[C@@H](O)[C@H](n5cnc6c(N)ncnc65)[C@H]5C[C@@]54COP(=O)(O)O[C@@H]2[C@@H]3O)c(=O)[nH]1 [Compound 1-34b]; 0.25 to 100 µM
Nc1nc2c(ncn2[C@H]2[C@H](O)[C@@H]3OP(=O)(O)OC[C@]45C[C@@H]4[C@@H](n4cnc6c(N)ncnc64)[C@H](O)[C@@H]5O[P@](=O)([S][Na])OC[C@@]34C[C@H]24)c(=O)[nH]1 [Compound 1-38a]; > 100 µM
CO[C@H]1[C@H]2OP(=O)(O)OC[C@]34C[C@@H]3[C@@H](n3cnc5c(N)ncnc53)[C@H](O)[C@@H]4O[P@](=O)([S][Na])OC[C@H]1O[C@H]2n1cnc2c(=O)[nH]c(N)nc21 [Compound 1-10a]; 0.25 to 100 µM
Nc1nc2c(ncn2[C@H]2[C@H](O)[C@@H]3OP(=O)(O)OC[C@H]4O[C@@H](n5cnc6c(N)ncnc65)[C@H](F)[C@@H]4O[P@](=O)([S][Na])OC[C@@]34C[C@H]24)c(=O)[nH]1 [Compound 1-19a]; 0.25 to 100 µM
Nc1ncnc2c1ncn2[C@H]1[C@H](O)[C@@H]2O[P@](=O)([S][Na])OC[C@H]3O[C@@H](n4cnc5c(=O)[nH]cnc54)[C@H](F)[C@@H]3OP(=O)(O)OC[C@@]23C[C@H]13 [Compound 1-20a]; 0.25 to 100 µM
Nc1ncnc2c1ncn2[C@H]1[C@H](O)[C@@H]2O[P@](=O)([S][Na])OC[C@H]3O[C@@H](n4cnc5c(N)ncnc54)[C@H](OP(=O)(O)OC[C@@]24C[C@H]14)[C@@H]3O [Compound 1-15a]; > 100 µM
Nc1ncnc2c1ncn2[C@H]1[C@H](O)[C@@H]2O[P@@](=O)([S][Na])OC[C@H]3O[C@@H](n4cnc5c(=O)[nH]cnc54)[C@H](F)[C@@H]3OP(=O)(O)OC[C@@]23C[C@H]13 [Compound 1-20b]; < 0.25 µM
Nc1nc2c(ncn2[C@H]2[C@@H]3OP(=O)(O)OC[C@]45C[C@@H]4[C@@H](n4cnc6c(N)ncnc64)[C@H](O)[C@@H]5O[P@](=O)([S][Na])OC[C@@]4(C[C@H]24)[C@H]3O)c(=O)[nH]1; > 100 µM

May I ask what EC50 has been recorded for Nc1nc2c(ncn2[C@@H]2O[C@@H]3CO[P@@](=O)([S][Na])O[C@H]4[C@@H](O)[C@H](n5cnc6c(N)ncnc65)[C@H]5C[C@]54COP(=O)(O)O[C@@H]2[C@@H]3F)c(=O)[nH]1 [Compound 1-22a] ? 0.25 to 100 µM

Sample Nc1ncnc2c1ncn2[C@H]1[C@H](O)[C@@H]2O[P@@](=O)([S][Na])OC[C@H]3O[C@@H](n4cnc5c(N)ncnc54)[C@H](OP(=O)(O)OC[C@@]24C[C@H]14)[C@@H]3O [Compound 1-15b] — what was its EC50? 0.25 to 100 µM

# get_value(readout='EC50', item= Nc1nc2c(ncn2[C@H]2[C@H](O)[C@@H]3OP(=O)(O)OC[C@]45C[C@@H]4[C@@H](n4cnc6c(N)ncnc64)[C@H](O)[C@@H]5O[P@@](=O)([S][Na])OC[C@@]34C[C@H]24)c(=O)[nH]1 [Compound 1-38b] ) > 100 µM
